# key: entry, value: MFI
- system name: T1, CD117 (c-Kit, stem cell factor receptor) on HEL or TF1 human erythroleukemia cells (human, UniProt P10721 26-976)
- T1 construct: whole, on cells
- T1 sequence (P10721 26-976): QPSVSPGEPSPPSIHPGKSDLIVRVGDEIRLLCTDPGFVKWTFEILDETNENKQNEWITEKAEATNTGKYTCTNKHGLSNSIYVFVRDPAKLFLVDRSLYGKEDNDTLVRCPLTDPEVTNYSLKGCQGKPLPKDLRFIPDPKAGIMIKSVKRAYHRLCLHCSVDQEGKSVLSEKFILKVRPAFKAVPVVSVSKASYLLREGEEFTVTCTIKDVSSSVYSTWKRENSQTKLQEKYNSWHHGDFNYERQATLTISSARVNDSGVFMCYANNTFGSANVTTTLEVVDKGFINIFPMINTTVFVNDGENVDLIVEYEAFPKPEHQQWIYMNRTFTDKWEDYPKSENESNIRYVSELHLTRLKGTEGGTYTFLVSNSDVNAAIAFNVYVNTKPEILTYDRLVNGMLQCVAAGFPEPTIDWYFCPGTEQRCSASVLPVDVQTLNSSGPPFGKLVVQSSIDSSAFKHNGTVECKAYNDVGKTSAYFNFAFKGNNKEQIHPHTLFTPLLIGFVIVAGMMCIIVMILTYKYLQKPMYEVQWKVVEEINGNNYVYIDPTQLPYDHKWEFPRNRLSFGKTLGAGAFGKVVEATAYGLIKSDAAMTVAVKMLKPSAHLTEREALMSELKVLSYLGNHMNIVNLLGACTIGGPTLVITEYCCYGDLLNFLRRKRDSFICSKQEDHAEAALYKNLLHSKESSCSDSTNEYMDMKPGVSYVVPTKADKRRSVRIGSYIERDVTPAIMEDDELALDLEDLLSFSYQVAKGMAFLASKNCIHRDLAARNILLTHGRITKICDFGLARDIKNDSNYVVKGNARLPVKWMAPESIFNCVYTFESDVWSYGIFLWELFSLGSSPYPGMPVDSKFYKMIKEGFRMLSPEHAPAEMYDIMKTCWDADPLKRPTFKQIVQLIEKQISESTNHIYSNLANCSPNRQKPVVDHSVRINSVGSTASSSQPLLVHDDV
- protocol details: flow cytometry on HEL cells; 0.1 µl/2.10^5 cells
Output: the number by itself.

// worked examples, MFI included
humanized antibody 36-5 Hz121 (antibody, human IgG1, V domains shown, The variable regions were cloned into vector p3U containing the human IgG1 constant region; also called H-36.5Hz30 + L-36.5Hz31) VH: QVQLVQSGAEVKKPGASVKVSCKASGYTFTSYWMNWVRQAPGQGLEWMGRIDPSDSEIHYNQKFKGRVTMTVDTSTSTAYMELSSLRSEDTAVYYCARDYGSDYYAMDYWGQGTLVTVSS VL: QIVLTQSPAFQSVTPGEKVTITCSASQSVSYMHWYQQKSGTSPKLLIYSTSNLTSGVPSRFSGSGSGTDYTLTISSLEAEDAATYYCHQWSSYPFGGGTKVEIK
210
humanized antibody 36-5 Hz128 (antibody, human IgG1, V domains shown, The variable regions were cloned into vector p3U containing the human IgG1 constant region; also called H-36.5Hz31 + L-36.5Hz31) VH: QVQLVQSGAEVKKPGASVKVSCKASGYTFTSYWMNWVRQAPGQGLEWIGRIDPSDSEIHYNQKFKGRVTMTVDTSTSTAYMELSSLRSEDTAVYYCARDYGSDYYAMDYWGQGTLVTVSS VL: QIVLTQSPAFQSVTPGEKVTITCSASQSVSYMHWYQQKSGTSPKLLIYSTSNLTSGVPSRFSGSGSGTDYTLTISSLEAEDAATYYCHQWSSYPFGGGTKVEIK
214
ch36-05 chimeric monoclonal antibody (antibody, human IgG1, kappa, V domains shown, Murine VH + human IgG1 Fc; murine VL + human Kappa; also called chR036-05; chR036.05) VH: QVQLQQSGAELVKPGAPVKLSCKASGYTFTRYWMNWVKQRPGRGLEWIGRIDPSDSEIHYNQNFKDKATLTVDKSSSTAYIQLSSLTSEDSAVYYCARDYGSDYYAMDYWGQGTSVTVSS VL: QIVLTQSPAIMSASLGEEITLTCSASSSVSYMHWYQQKSGTSPKLLIYSTSNLTSGVPSRFSGSGSGTFYSLTISSVEAEDAADYYCHQWSSYPFGGGTKLEIKR
259

Moving on to the next binder.
humanized antibody 36-5 Hz114 (antibody, human IgG1, V domains shown, The variable regions were cloned into expression vector p3U containing the human IgG1 constant region; also called H-36.5Hz27 + L-36.5Hz31) VH: QVQLVQSGAEVKKPGASVKVSCKASGYTFTSYWMNWVRQAPGQGLEWMGRIDPSDSEIHYNQKFKDKATLTVDKSTSTAYMELSSLRSEDTAVYYCARDYGSDYYAMDYWGQGTLVTVSS VL: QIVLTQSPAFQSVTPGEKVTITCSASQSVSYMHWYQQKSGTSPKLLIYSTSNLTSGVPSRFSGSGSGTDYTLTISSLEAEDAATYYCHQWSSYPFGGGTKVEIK has a reported MFI of 225
